# System: HeLa cells
# Protocol details: Visual assessment of cytotoxicity, HeLa cells
# Format: cell-based, human
# Run parameters: HeLa cells (paclitaxel sensitive); 24-well plate (FIG. 5A)
Metric: rounded up cells in mitosis (visual assessment)

molecule="COc1cccc(NC2=NC3(CCCCC3)N=C(N)N2)c1 [T-11]" target_desc="HeLa cells" observed="less effect"
molecule="COc1ccc(NC2=NC3(CCCC3)N=C(N)N2)cc1 [T-12]" target_desc="HeLa cells" observed="less effect"
